tested_target: UniProt:P11712
Sequence (P11712 whole entry): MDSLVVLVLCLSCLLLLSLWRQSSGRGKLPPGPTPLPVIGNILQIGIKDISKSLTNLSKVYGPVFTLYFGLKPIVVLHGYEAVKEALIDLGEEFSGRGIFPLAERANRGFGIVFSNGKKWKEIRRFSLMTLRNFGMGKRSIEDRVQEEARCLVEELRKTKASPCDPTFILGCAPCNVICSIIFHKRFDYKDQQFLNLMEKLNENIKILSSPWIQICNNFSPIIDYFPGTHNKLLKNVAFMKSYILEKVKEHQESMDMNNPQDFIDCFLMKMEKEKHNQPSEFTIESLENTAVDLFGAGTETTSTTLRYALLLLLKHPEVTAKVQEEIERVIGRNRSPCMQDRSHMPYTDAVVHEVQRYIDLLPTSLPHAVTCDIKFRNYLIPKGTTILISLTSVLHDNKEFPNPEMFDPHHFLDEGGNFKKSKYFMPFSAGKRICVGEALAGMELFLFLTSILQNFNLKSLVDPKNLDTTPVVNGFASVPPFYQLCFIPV
measured_endpoint: IC50

compound	tested_target	measured_endpoint	result
Cc1c(C#N)cccc1-c1ccc(F)c2c1CC[C@H]2Oc1ccc([C@H]2C[C@@H]2C(=O)O)cc1 [Example 54 in WO 2013/178575, reference compound]	UniProt:P11712	IC50	10 µM
Cc1cc(-c2ccn(C)c(=O)n2)cc(C)c1-c1ccc(F)c2c1CC[C@H]2Nc1ccc([C@H]2C[C@@H]2C(=O)O)nc1	UniProt:P11712	IC50	> 50 µM
Cc1cc(OCCC(C)(C)O)cc(C)c1-c1ccc(F)c2c1CC[C@H]2Nc1ccc([C@H]2C[C@@H]2C(=O)O)nc1	UniProt:P11712	IC50	> 50 µM
COc1cnc(-c2ccc(-c3cccc4c3CC[C@H]4Nc3ccc([C@H]4C[C@@H]4C(=O)O)nc3)cc2)cn1	UniProt:P11712	IC50	> 50 µM
Cc1cccc(C)c1-c1ccc(F)c2c1CC[C@H]2Oc1ccc(C2CC2C(=O)O)cc1 (stereo partly drawn) [Example 33 in WO 2013/178575, reference compound]	UniProt:P11712	IC50	7 µM

Exercise: Recorded IC50 of "Cc1cc(OCC2(O)CCS(=O)(=O)CC2)cc(C)c1-c1ccc(F)c2c1CC[C@H]2Nc1ccc([C@H]2C[C@@H]2C(=O)O)nc1" , please.
Key: > 50 µM
